# Test system: human recombinant 5-HT2A receptor (Homo sapiens, UniProt P28223)
# Construct: expressed in transfected cells; host or cells: Jump-In HEK cells (membrane preparation)
# Sequence (P28223 whole entry): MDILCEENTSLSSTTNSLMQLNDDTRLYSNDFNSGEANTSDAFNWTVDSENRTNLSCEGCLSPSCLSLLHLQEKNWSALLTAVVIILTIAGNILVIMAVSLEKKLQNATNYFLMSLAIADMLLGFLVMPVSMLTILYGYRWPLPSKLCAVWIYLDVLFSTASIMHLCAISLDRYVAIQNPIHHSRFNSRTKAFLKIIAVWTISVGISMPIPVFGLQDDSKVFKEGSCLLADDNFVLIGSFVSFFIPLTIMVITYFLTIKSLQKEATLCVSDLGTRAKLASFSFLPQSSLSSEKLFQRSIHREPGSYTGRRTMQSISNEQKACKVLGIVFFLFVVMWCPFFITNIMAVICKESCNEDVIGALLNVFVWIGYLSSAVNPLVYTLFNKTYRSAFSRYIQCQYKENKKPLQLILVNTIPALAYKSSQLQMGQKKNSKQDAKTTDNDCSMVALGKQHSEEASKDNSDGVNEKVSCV
# Procedure summary: Test Example 1-2: 5-HT2A receptor binding inhibition test ([3H]-Ketanserin; non-specific ligand Ketanserin)
# Condition summary: [3H]-Ketanserin; non-specific binding with 500 µmol/L Ketanserin; room temperature (25°C), 1.5 hours; read-out: h 5-HT2A Ki
pKi: −log10 of the molar value.
Measurement label: pKi

Solved entries (count: 3):
# Smiles text, Test system, pKi
data = [
    ("Cn1ncc(Br)c1-c1cc(Nc2ncc(C3CC3)s2)ccc1OCCO", "human recombinant 5-HT2A receptor (Homo sapiens, UniProt P28223)", 9.67),
    ("Cc1noc(C)c1-c1cc(Nc2ncc(C(F)(F)F)cc2F)ccc1OCCO", "human recombinant 5-HT2A receptor (Homo sapiens, UniProt P28223)", 9.61),
    ("COCc1nc(C)c(-c2nc(Nc3ccc(-c4ccc(C(F)(F)F)nc4)cn3)c(F)cc2OCCO)c(C)n1", "human recombinant 5-HT2A receptor (Homo sapiens, UniProt P28223)", 8.33),
]

I. Cn1ncc(Br)c1-c1cc(Nc2ccc(C(F)F)nn2)c(F)cc1OCCO
II. Cn1ncc(Br)c1-c1cc(Nc2nc3cc(F)ccc3[nH]2)ccc1OCCO
III. Cc1nc(C)c(-c2cc(Nc3ccc(C(F)(F)F)cn3)c(F)cc2OCCO)c(C)n1
List these items ordered by pKi, big to small. Answer by listing the labels in the requested order. II, I, III

a. Cn1ncc(Br)c1-c1cc(Nc2ncc(Cl)cc2F)ccc1OCCO
b. Cc1nc(C)c(-c2cc(Nc3ncc(C(F)(F)F)cc3F)ncc2OCCO)c(C)n1
Thinking about recorded pKi values, which is higher, a or b ? Please respond with the label that marks your chosen entry. a

a. Cn1ncc(Br)c1-c1cc(Nc2ncc(Cl)cn2)cnc1OCCO
b. Cc1nc(OCC2COC2)nc(C)c1-c1cc(Nc2ncc(C(F)(F)F)cc2Cl)ncc1OCCO
Smaller pKi value? Options are a and b Please respond with the label that marks your chosen entry. b
(b: 8.90, a: 9.63)

a. Cn1ncc(Br)c1-c1cc(Nc2ncc(C(F)(F)F)cn2)ncc1OCCO
b. COCc1nc(C)c(-c2cc(Nc3ncc(-c4ccc(C#N)cc4)cc3Cl)ncc2OCCO)c(C)n1
Smaller pKi value? Options are a and b Please respond with the label that marks your chosen entry. b
(b: 9.10, a: 9.53)

* * *

# Test system: human recombinant 5-HT2C receptor (Homo sapiens)
# Construct: expressed in transfected cells; host or cells: Jump-In HEK cells (membrane preparation)
# Sequence (P28335 33-458): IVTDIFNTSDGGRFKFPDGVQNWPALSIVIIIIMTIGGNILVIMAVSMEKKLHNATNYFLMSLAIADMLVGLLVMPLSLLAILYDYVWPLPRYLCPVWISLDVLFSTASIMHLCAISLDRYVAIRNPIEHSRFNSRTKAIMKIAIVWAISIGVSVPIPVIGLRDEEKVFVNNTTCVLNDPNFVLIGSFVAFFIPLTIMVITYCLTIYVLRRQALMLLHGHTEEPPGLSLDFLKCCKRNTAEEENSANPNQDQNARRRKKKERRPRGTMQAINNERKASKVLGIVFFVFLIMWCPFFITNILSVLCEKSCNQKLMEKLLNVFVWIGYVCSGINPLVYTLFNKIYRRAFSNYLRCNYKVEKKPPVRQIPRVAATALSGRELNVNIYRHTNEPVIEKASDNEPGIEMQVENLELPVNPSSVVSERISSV
# Procedure summary: Test Example 2: 5-HT2C receptor binding inhibition test ([3H]-Mesulergine; non-specific ligand Serotonin HCl)
# Condition summary: human serotonin 5-HT2C receptor binding activity
pKi: −log10 of the molar value.
Measurement label: pKi

I. Cn1ncc(Br)c1-c1nc(Nc2ccc(Cl)c(Cl)c2)ncc1OCCO
II. Cc1cnn(C)c1-c1cc(Nc2ncc(OC(F)F)cc2F)ncc1OCCO
Thinking about recorded pKi values, which is higher, I or II ? Please respond with the label that marks your chosen entry. II

A. COCc1nc(C)c(-c2cc(Nc3ncc(-c4cccc(C(F)F)c4)cc3Cl)ncc2OCCO)c(C)n1
B. Cc1nc(C)c(-c2cc(Nc3ncc(OC(F)(F)F)cc3C)ncc2OCCO)c(C)n1
Smaller pKi value? Options are A and B Please respond with the label that marks your chosen entry. B

1. Cn1ncc(Br)c1-c1cc(Nc2nc3ccccc3o2)ncc1OCCO
2. Cn1ncc(Br)c1-c1nc(Nc2nc3ccc(F)cc3s2)c(F)cc1OCCO
3. Cn1ncc(Br)c1-c1nc(Nc2cnc(C(F)(F)F)nc2)c(F)cc1OCCO
4. Cn1ncc(C#N)c1-c1cc(Nc2ccc(-c3ccc(F)cc3)cn2)ncc1OCCO
Ordering: ascending pKi. Answer by listing the labels in the requested order. 3, 1, 2, 4
(3: 7.22, 1: 7.79, 2: 8.12, 4: 8.73)
